# assayed_target: NAD(P)H dehydrogenase [quinone] 1 (Homo sapiens, UniProt P15559)
# Sequence (P15559 whole entry): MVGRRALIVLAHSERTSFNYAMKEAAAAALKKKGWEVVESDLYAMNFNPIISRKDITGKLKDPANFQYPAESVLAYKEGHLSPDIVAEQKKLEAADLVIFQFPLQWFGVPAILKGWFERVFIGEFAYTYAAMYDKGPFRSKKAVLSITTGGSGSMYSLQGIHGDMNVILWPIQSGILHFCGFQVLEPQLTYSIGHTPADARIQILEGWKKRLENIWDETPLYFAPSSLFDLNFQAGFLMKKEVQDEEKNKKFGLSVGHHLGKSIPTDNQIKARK
property_measured: IC50 (µM)
Kindly answer with a numeric value in µM, unit omitted.

Examples with answers:
[
  {
    "compound_string": "Cc1ccc2oc(=O)c(Cc3c(O)c4cc(C)ccc4oc3=O)c(O)c2c1",
    "recorded_result": 5.5
  },
  {
    "compound_string": "CCCC(c1c(O)c2ccccc2oc1=O)c1c(O)c2ccccc2oc1=O",
    "recorded_result": 5.32
  },
  {
    "compound_string": "COc1ccc2oc(=O)c(Cc3c(O)c4cc(OC)ccc4oc3=O)c(O)c2c1",
    "recorded_result": 3.3
  },
  {
    "compound_string": "O=c1oc2ccccc2c(O)c1Cc1ccccc1",
    "recorded_result": 3.2
  }
]

Please examine the following record next.
Name the recorded IC50 for O=c1oc2ccc(Cl)cc2c(O)c1Cc1c(O)c2cc(Cl)ccc2oc1=O . 6.25
